Test system: IL-1β production by mouse peritoneal macrophages
assay: IL-1β production by mouse peritoneal macrophages (ELISA)
Format: cell-based
setup_conditions: dose 0.2 μM; mouse peritoneal macrophages, 48 h, ELISA
Peptide text beside a SMILES is read from it. * marks the point of attachment. X68 = O=C1C=CC(=O)N1c1ccccc1CCCCCCCCCCCC(=O)*; X60 = O=C1C=CC(=O)N1c1ccccc1CCCCCCCCCC(=O)*; X75 = O=C1C=CC(=O)N1c1cccc(CC(=O)*)c1
List of IL-1β values.
Report only the number, with the unit pg/mL understood.

Below are worked cases with known answers.
C[C@H](NC(=O)CNC(=O)[C@H](CCCNC(=N)N)NC(=O)CCCCCCCCCc1ccccc1N1C(=O)C=CC1=O)C(=O)N[C@@H](CC(=O)O)C(=O)N[C@@H](CCCNC(=N)N)C(=O)N[C@@H](C)C(=O)NCC(=O)NCC(=O)NCC(=O)NCC(=O)N[C@@H](CCCNC(=N)N)C(=O)NCC(=O)N[C@@H](CC(=O)O)C(=O)O [X21] (X60-RGADRAGGGGRGD-OH) | 526.94
C[C@H](NC(=O)CNC(=O)[C@H](CCCNC(=N)N)NC(=O)Cc1cccc(N2C(=O)C=CC2=O)c1)C(=O)N[C@@H](CC(=O)O)C(=O)N[C@@H](CCCNC(=N)N)C(=O)N[C@@H](C)C(=O)NCC(=O)NCC(=O)NCC(=O)NCC(=O)N[C@@H](CCCNC(=N)N)C(=O)NCC(=O)N[C@@H](CC(=O)O)C(=O)O [X25] (X75-RGADRAGGGGRGD-OH) | 659.86

Continue with the next compound.
Bench note, IL-1β production by mouse peritoneal macrophages: entry C[C@H](NC(=O)CNC(=O)[C@H](CCCNC(=N)N)NC(=O)CCCCCCCCCCCc1ccccc1N1C(=O)C=CC1=O)C(=O)N[C@@H](CC(=O)O)C(=O)N[C@@H](CCCNC(=N)N)C(=O)N[C@@H](C)C(=O)NCC(=O)NCC(=O)NCC(=O)NCC(=O)N[C@@H](CCCNC(=N)N)C(=O)NCC(=O)N[C@@H](CC(=O)O)C(=O)O [X23] (X68-RGADRAGGGGRGD-OH) , its IL-1β = 623.64

----------
assay: Half-lives and pharmacokinetic parameters of polypeptides vs HM-1
setup_conditions: in vivo, T1/2β (half-life)
Peptide text beside a SMILES is read from it. * marks the point of attachment. X14 = O=C1C=CC(=O)N1CCOCCOCCOCCOCCOCCCCCCC(=O)*; X24 = O=C1C=CC(=O)N1CCOCCOCCOCCOCCOCCC(=O)*; X43 = O=C1C=CC(=O)N1c1ccc(CCCCCCC(=O)*)cc1; X63 = O=C1C=CC(=O)N1c1ccccc1CCCCCCC(=O)*; X61 = O=C1C=CC(=O)N1c1cccc(CCCC(=O)*)c1; X13 = O=C1C=CC(=O)N1CCOCCCCCC(=O)*
assay_metric: half-life (h)
Report only the number, with the unit h understood.

Below are worked cases with known answers.
C[C@H](NC(=O)CNC(=O)[C@H](CCCNC(=N)N)NC(=O)CCCCCOCCN1C(=O)C=CC1=O)C(=O)N[C@@H](CC(=O)O)C(=O)N[C@@H](CCCNC(=N)N)C(=O)N[C@@H](C)C(=O)NCC(=O)NCC(=O)NCC(=O)NCC(=O)N[C@@H](CCCNC(=N)N)C(=O)NCC(=O)N[C@@H](CC(=O)O)C(=O)O [X53] (X13-RGADRAGGGGRGD-OH) | 38.5
C[C@H](NC(=O)CNC(=O)[C@H](CCCNC(=N)N)NC(=O)CCOCCOCCOCCOCCOCCN1C(=O)C=CC1=O)C(=O)N[C@@H](CC(=O)O)C(=O)N[C@@H](CCCNC(=N)N)C(=O)N[C@@H](C)C(=O)NCC(=O)NCC(=O)NCC(=O)NCC(=O)N[C@@H](CCCNC(=N)N)C(=O)NCC(=O)N[C@@H](CC(=O)O)C(=O)O [X78] (X24-RGADRAGGGGRGD-OH) | 37
C[C@H](NC(=O)CNC(=O)[C@H](CCCNC(=N)N)NC(=O)CCCCCCc1ccc(N2C(=O)C=CC2=O)cc1)C(=O)N[C@@H](CC(=O)O)C(=O)N[C@@H](CCCNC(=N)N)C(=O)N[C@@H](C)C(=O)NCC(=O)NCC(=O)NCC(=O)NCC(=O)N[C@@H](CCCNC(=N)N)C(=O)NCC(=O)N[C@@H](CC(=O)O)C(=O)O [X42] (X43-RGADRAGGGGRGD-OH) | 33.6
C[C@H](NC(=O)CNC(=O)[C@H](CCCNC(=N)N)NC(=O)CCCc1cccc(N2C(=O)C=CC2=O)c1)C(=O)N[C@@H](CC(=O)O)C(=O)N[C@@H](CCCNC(=N)N)C(=O)N[C@@H](C)C(=O)NCC(=O)NCC(=O)NCC(=O)NCC(=O)N[C@@H](CCCNC(=N)N)C(=O)NCC(=O)N[C@@H](CC(=O)O)C(=O)O [X27] (X61-RGADRAGGGGRGD-OH) | 32.5
C[C@H](NC(=O)CNC(=O)[C@H](CCCNC(=N)N)NC(=O)CCCCCCOCCOCCOCCOCCOCCN1C(=O)C=CC1=O)C(=O)N[C@@H](CC(=O)O)C(=O)N[C@@H](CCCNC(=N)N)C(=O)N[C@@H](C)C(=O)NCC(=O)NCC(=O)NCC(=O)NCC(=O)N[C@@H](CCCNC(=N)N)C(=O)NCC(=O)N[C@@H](CC(=O)O)C(=O)O [X82] (X14-RGADRAGGGGRGD-OH) | 31.9

Continue with the next compound.
Memo: C[C@H](NC(=O)CNC(=O)[C@H](CCCNC(=N)N)NC(=O)CCCCCCc1ccccc1N1C(=O)C=CC1=O)C(=O)N[C@@H](CC(=O)O)C(=O)N[C@@H](CCCNC(=N)N)C(=O)N[C@@H](C)C(=O)NCC(=O)NCC(=O)NCC(=O)NCC(=O)N[C@@H](CCCNC(=N)N)C(=O)NCC(=O)N[C@@H](CC(=O)O)C(=O)O [X18] (X63-RGADRAGGGGRGD-OH) , reported half-life: 33.8
